# Relative KD to VMDO2 VH0/Vk0 per entry
Target: T1, human c-Met (Sino Biological) (human, UniProt P08581 25-932, limits assumed)
T1 construct: Analyte in the Biacore assay; also called antigen (c-Met); printed as "human c-Met antibody (Sino Biological, Beijing, China)"
T1 sequence (P08581 25-932 limits assumed): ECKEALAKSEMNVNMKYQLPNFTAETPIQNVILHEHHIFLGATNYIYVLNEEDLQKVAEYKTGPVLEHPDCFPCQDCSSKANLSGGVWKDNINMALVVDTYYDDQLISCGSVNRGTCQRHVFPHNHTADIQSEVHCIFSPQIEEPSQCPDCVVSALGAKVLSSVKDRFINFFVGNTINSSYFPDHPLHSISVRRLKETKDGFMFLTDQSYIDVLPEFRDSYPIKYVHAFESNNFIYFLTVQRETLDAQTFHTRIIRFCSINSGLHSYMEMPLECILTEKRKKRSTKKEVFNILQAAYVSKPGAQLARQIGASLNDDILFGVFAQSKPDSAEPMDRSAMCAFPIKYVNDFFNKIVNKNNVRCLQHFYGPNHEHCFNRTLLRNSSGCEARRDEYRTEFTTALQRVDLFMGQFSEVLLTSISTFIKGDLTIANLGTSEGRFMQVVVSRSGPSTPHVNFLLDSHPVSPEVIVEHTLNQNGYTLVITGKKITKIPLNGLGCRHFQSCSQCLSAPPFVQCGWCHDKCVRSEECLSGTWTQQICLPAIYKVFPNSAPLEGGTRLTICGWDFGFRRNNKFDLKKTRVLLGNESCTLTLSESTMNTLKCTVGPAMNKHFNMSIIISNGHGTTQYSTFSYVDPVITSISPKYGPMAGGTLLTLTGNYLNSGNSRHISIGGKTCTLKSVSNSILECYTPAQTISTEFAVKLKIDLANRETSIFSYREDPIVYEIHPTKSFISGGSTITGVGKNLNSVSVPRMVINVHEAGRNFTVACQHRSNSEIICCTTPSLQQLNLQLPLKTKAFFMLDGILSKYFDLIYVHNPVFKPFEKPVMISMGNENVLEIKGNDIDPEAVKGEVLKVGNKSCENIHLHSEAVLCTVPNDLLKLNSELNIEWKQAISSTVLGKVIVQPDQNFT
Experiment: SPR (Biacore T200), IgG captured on Protein A CM5 chip, c-Met 0.15-2 nM as analyte
// response body must contain only the number

Please review the following examples before continuing.
binder	experimental-endpoint	numeric-readout
VH5/Vk3 (antibody, IgG1, V domains shown, Full IgG1/kappa expressed in HEK 293 EBNA cells) VH: QVQLVQSGAEVKKPGSSVKVSCQGSGYSFPTHWITWVRQAPGQGLEWMGTIDPTDSYNFYGPSFQGRVTITADSSTSTAYMELSSLRSEDTAVYYCARDGNYYDSRGYYYDTFDMWGQGTLVTVSS VL: DIQMTQSPGFLSLSPGERATLSCRASQGISTYLAWYQQKPGQAPRLLIYSASTLESGVPDRFSGSGSGTDFTLTISRLEPEDFATYYCQQADSFPLTFGGGTKVEIK	Relative KD to VMDO2 VH0/Vk0	0.77
VH4/Vk4 (antibody, IgG1, V domains shown, Full IgG1/kappa expressed in HEK 293 EBNA cells) VH: QVQLVQSGAEVKKPGSSVKVSCQGSGYSFPTHWITWVRQAPGQGLEWMGTIDPTDSYNFYGPSFQGRVTITADSSTSTAYMELSSLRSEDTAMYYCARDGNYYDSRGYYYDTFDMWGQGTLVTVSS VL: EIQMTQSPGTLSLSPGERATLSCRASQGISTYLAWYQQKPGQAPRLLIYSASTLESGVPDRFSGSGSGTDFTLTISRLEPEDFATYYCQQADSFPLTFGGGTKVEIK	Relative KD to VMDO2 VH0/Vk0	0.72
VH0/Vk0 (antibody, IgG1, V domains shown, Full IgG1/kappa with the variable domains of 1E4; also called 1E4 antibody variant including the constant domain where the residues were substituted) VH: QVQLVQSGAEVKKPGESLRISCQGSGYSFPTHWITWVRQMPGKGLEWMGTIDPTDSYNFYGPSFQGHVTISADSSSSTAYLQWSSLKASDTAMYYCARDGNYYDSRGYYYDTFDMWGQGTLVTVSS VL: DIQMTQSPSFLSASVGDRVTITCRASQGISTYLAWYQQKPGTAPKLLIYSASTLESGVPSRFSGSGSGTDFTLTISSLQPEDSATYYCQQADSFPLTFGGGTKVEIK	Relative KD to VMDO2 VH0/Vk0	1

// next entry
Task: State the recorded Relative KD to VMDO2 VH0/Vk0 for this entry: VH4/Vk3 (antibody, IgG1, V domains shown, Full IgG1/kappa expressed in HEK 293 EBNA cells) VH: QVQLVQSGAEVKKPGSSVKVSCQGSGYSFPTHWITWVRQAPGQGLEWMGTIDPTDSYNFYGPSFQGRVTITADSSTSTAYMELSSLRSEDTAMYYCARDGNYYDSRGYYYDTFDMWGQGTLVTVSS VL: DIQMTQSPGFLSLSPGERATLSCRASQGISTYLAWYQQKPGQAPRLLIYSASTLESGVPDRFSGSGSGTDFTLTISRLEPEDFATYYCQQADSFPLTFGGGTKVEIK
Result: 0.81
